Property: activation; scope: individual compounds
Test: FXN promoter activators, primary screen, cell-based, luciferase luminescence, HEK293 lucGAA850 (AID 540364);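 also: 0% = DMSO wells and 100% = 10 µM SAHA wells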
Conditions: HEK293 lucGAA850 FXN promoter luciferase reporter, 24 h; at 6 µM; hits give high values; percent of 10 µM SAHA response
Among all 360,000 compounds or so, about 2,000 (0.56%) were called active. This is one part of a sample in which actives are shown more often than they occur.
Field: numeric (%). Do not append units.

# annotated cases, reported activation shown
{"columns": ["Compound", "Unit Spec", "activation"],
 "data": [
  ["COc1ccccc1CCNC(=O)c1cnccn1", "%", 2.62],
  ["COc1ccc(NC(=O)CSCc2ccc([N+](=O)[O-])cc2)cc1OC", "%", 0.83],
  ["O=C1COc2c1ccc(O)c2O", "%", 1.71],
  ["Cc1ccc2c(c1)N(CC(=O)NCC1CCCO1)C(=O)CO2 (configuration not stated)", "%", 0.58],
  ["CCOC(=O)c1c(C)oc2cc(Br)c(OCC(N)=O)cc12", "%", -1.34]
]}

For this compound ( `O=C(COc1ccc(Cl)cc1Cl)NCCCNC(=O)c1cnccn1` ), measured activation is 7.84

For this compound ( `CC(=O)c1cnc(-c2ccccc2)s1` ), measured activation is -1.26
